# Test Details: Pharmacokinetics of butorphanol in plasma
# Measurement Setup: both, Beagle, dog, in vivo, iv, 0.4 mg/kg, T ½ λz, IV bolus 0.4 mg/kg IV; geometric mean, n=6
Quantity Measured: half-life (h)
Numbers only; they are read as h.

[in] What value of measured half-life is listed for Oc1ccc2c(c1)[C@@]13CCCC[C@@]1(O)[C@@H](C2)N(CC1CCC1)CC3 ?
[out] 1.47

====

# Test Details: Pharmacokinetics of butorphanol in plasma
# Measurement Setup: both, Beagle, dog, in vivo, iv, 0.4 mg/kg, MRT, IV bolus 0.4 mg/kg IV; geometric mean, n=6
Quantity Measured: MRT (h)
Numbers only; they are read as h.

[in] What value of measured MRT is listed for Oc1ccc2c(c1)[C@@]13CCCC[C@@]1(O)[C@@H](C2)N(CC1CCC1)CC3 ?
[out] 1.26

====

# Test Details: Pharmacokinetics of butorphanol in plasma
# Measurement Setup: both, Beagle, dog, in vivo, iv, 0.4 mg/kg
Quantity Measured: concentration at 5 min (ng/mL)
Numbers only; they are read as ng/mL.

[in] What value of measured concentration at 5 min is listed for Oc1ccc2c(c1)[C@@]13CCCC[C@@]1(O)[C@@H](C2)N(CC1CCC1)CC3 [butorphanol] ?
[out] 144

====

# Test Details: Pharmacokinetics of butorphanol in plasma
# Measurement Setup: both, Beagle, dog, in vivo, sc, 0.4 mg/kg
Quantity Measured: Cmax (µg/mL)
Numbers only; they are read as µg/mL.

[in] What value of measured Cmax is listed for Oc1ccc2c(c1)[C@@]13CCCC[C@@]1(O)[C@@H](C2)N(CC1CCC1)CC3 ?
[out] 0.0742

====

# Test Details: Pharmacokinetics of butorphanol in plasma
# Measurement Setup: both, Beagle, dog, in vivo, half-life, dogs; overall statement of abstract
Quantity Measured: half-life

[in] What value of measured half-life is listed for Oc1ccc2c(c1)[C@@]13CCCC[C@@]1(O)[C@@H](C2)N(CC1CCC1)CC3 ?
[out] ~1.5 h

====

# Test Details: Pharmacokinetics of butorphanol in plasma
# Measurement Setup: both, Beagle, dog, in vivo, sc, 0.4 mg/kg
Quantity Measured: TMAX (min)
Numbers only; they are read as min.

[in] What value of measured TMAX is listed for Oc1ccc2c(c1)[C@@]13CCCC[C@@]1(O)[C@@H](C2)N(CC1CCC1)CC3 [butorphanol] ?
[out] 12.6

====

# Test Details: Pharmacokinetics of butorphanol in plasma
# Measurement Setup: both, Beagle, dog, in vivo, iv, 0.4 mg/kg, Vss, IV bolus 0.4 mg/kg IV; geometric mean, n=6
Quantity Measured: Vd (L/kg)
Numbers only; they are read as L/kg.

[in] What value of measured Vd is listed for Oc1ccc2c(c1)[C@@]13CCCC[C@@]1(O)[C@@H](C2)N(CC1CCC1)CC3 [butorphanol] ?
[out] 3.51

====

# Test Details: Pharmacokinetics of butorphanol in plasma
# Measurement Setup: both, Beagle, dog, in vivo, iv, 0.4 mg/kg, AUCinf, IV bolus 0.4 mg/kg IV; geometric mean, n=6
Quantity Measured: AUC(0-inf) (ng·h/mL)
Numbers only; they are read as ng·h/mL.

[in] What value of measured AUC(0-inf) is listed for Oc1ccc2c(c1)[C@@]13CCCC[C@@]1(O)[C@@H](C2)N(CC1CCC1)CC3 ?
[out] 143

====

# Test Details: Pharmacokinetics of butorphanol in plasma
# Measurement Setup: both, Beagle, dog, in vivo, sc, 0.4 mg/kg, AUCinf, SC 0.4 mg/kg; geometric mean, n=6
Quantity Measured: AUC(0-inf) (ng·h/mL)
Numbers only; they are read as ng·h/mL.

[in] What value of measured AUC(0-inf) is listed for Oc1ccc2c(c1)[C@@]13CCCC[C@@]1(O)[C@@H](C2)N(CC1CCC1)CC3 ?
[out] 123

====

# Test Details: Pharmacokinetics of butorphanol in plasma
# Measurement Setup: both, Beagle, dog, in vivo, iv, 0.4 mg/kg, λz, IV bolus 0.4 mg/kg IV; geometric mean, n=6
Quantity Measured: k el (s⁻¹)
Numbers only; they are read as s⁻¹.

[in] What value of measured k el is listed for Oc1ccc2c(c1)[C@@]13CCCC[C@@]1(O)[C@@H](C2)N(CC1CCC1)CC3 ?
[out] 0.000131

====

# Test Details: Pharmacokinetics of butorphanol in plasma
# Measurement Setup: both, Beagle, dog, in vivo, sc, 0.4 mg/kg, MRT, SC 0.4 mg/kg; geometric mean, n=6
Quantity Measured: MRT
# output: number + unit

[in] What value of measured MRT is listed for Oc1ccc2c(c1)[C@@]13CCCC[C@@]1(O)[C@@H](C2)N(CC1CCC1)CC3 ?
[out] 2.09 h

====

# Test Details: Pharmacokinetics of butorphanol in plasma
# Measurement Setup: both, Beagle, dog, in vivo, iv, T ½ λz, IV CRI: 0.2 mg/kg IV loading dose then 0.2 mg/kg/hr for 8 hours; geometric mean, n=5
Quantity Measured: half-life (h)
Numbers only; they are read as h.

[in] What value of measured half-life is listed for Oc1ccc2c(c1)[C@@]13CCCC[C@@]1(O)[C@@H](C2)N(CC1CCC1)CC3 ?
[out] 1.42

====

# Test Details: Pharmacokinetics of butorphanol in plasma
# Measurement Setup: both, Beagle, dog, in vivo, sc, 0.4 mg/kg, T ½ λz, SC 0.4 mg/kg; geometric mean, n=6
Quantity Measured: half-life
# output: number + unit

[in] What value of measured half-life is listed for Oc1ccc2c(c1)[C@@]13CCCC[C@@]1(O)[C@@H](C2)N(CC1CCC1)CC3 ?
[out] 1.83 h
